Below is a list of entries, each paired with its recorded PBM binding z-score value.
system: THRa homodimer (NR concentration 90 nM); assay: PBM binding z-score (relative to random genomic background probes); higher = stronger binding; sequences stand for … in GC…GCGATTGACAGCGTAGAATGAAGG

>  <biopolymer_sequence>
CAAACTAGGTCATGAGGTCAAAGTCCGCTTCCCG

>  <tested_system>
THRa homodimer (NR concentration 90 nM)

>  <PBM binding z-score>
4.88

$$$$
>  <biopolymer_sequence>
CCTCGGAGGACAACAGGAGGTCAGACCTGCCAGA

>  <tested_system>
THRa homodimer (NR concentration 90 nM)

>  <PBM binding z-score>
1.02

$$$$
>  <biopolymer_sequence>
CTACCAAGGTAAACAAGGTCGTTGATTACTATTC

>  <tested_system>
THRa homodimer (NR concentration 90 nM)

>  <PBM binding z-score>
1.5

$$$$
>  <biopolymer_sequence>
ATATGTAGGTTTCATCCGGGTCATTCAGGCTATG

>  <tested_system>
THRa homodimer (NR concentration 90 nM)

>  <PBM binding z-score>
2.18

$$$$
>  <biopolymer_sequence>
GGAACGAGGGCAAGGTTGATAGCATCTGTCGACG

>  <tested_system>
THRa homodimer (NR concentration 90 nM)

>  <PBM binding z-score>
0.156

$$$$
>  <biopolymer_sequence>
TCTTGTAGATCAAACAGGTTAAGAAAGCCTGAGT

>  <tested_system>
THRa homodimer (NR concentration 90 nM)

>  <PBM binding z-score>
-0.548

$$$$
>  <biopolymer_sequence>
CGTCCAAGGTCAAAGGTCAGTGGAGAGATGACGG

>  <tested_system>
THRa homodimer (NR concentration 90 nM)

>  <PBM binding z-score>
2.93

$$$$
>  <biopolymer_sequence>
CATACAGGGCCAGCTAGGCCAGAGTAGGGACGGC

>  <tested_system>
THRa homodimer (NR concentration 90 nM)

>  <PBM binding z-score>
-0.492

$$$$
>  <biopolymer_sequence>
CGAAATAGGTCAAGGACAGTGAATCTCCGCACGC

>  <tested_system>
THRa homodimer (NR concentration 90 nM)

>  <PBM binding z-score>
1.7

$$$$
